- System: hippocampal neurons
- testMethodNotes: Neurite outgrowth assay in cultured E18 rat hippocampal neurons (48 h, βIII-tubulin staining, Cellomics ArrayScan)
- Assay type: cell-based
- experimentalContext: Hippocampal neuron, 48 h, 200% effective dose, estimated using linear interpolation, read-out: ED200%
Recorded log10(EC200) by entry
measuredEndpoint: log10(EC200) (log10 of the value in µM)

1. CC1CCC(CN2C(=S)N(CCCC[C@H]3CNC(C4CCCC4)=N3)C[C@H]2C)CC1 (stereo partly drawn) [Compound A8]: -0.89
2. CC1CCC(CN2C(=S)N(CCCC[C@H]3CNC(C4CCCC4)=N3)C[C@H]2c2ccccc2)CC1 (stereo partly drawn) [Compound A26]: -2.70
3. CC1CCC(CN2C(=S)N(CCCC[C@H]3CNC(CCCc4ccccc4)=N3)C[C@H]2c2ccccc2)CC1 (stereo partly drawn) [Compound A27]: -1.77
4. CC(C)C[C@@H]1CN(CCCC[C@H]2CNC(C3CCCC3)=N2)C(=S)N1CC1CCC(C)CC1 (stereo partly drawn) [Compound A17]: -2.40
5. CC(C)C[C@@H]1CN(CCCC[C@H]2CNC(C3CCCC3)=N2)C(=S)N1CCC1CCCCC1 [Compound A14]: -2.40
6. S=C1N(CCCC[C@H]2CNC(C3CCCC3)=N2)C[C@@H](c2ccccc2)N1CCC1CCCCC1 [Compound A23]: -2.15
7. CCC(C)C1=N[C@@H](CCCCN2C[C@@H](c3ccccc3)N(CC3CCC(C)CC3)C2=S)CN1 (stereo partly drawn) [Compound A25]: -2.30
8. CCC(C)C1=N[C@@H](CCCCN2C[C@@H](CC(C)C)N(CC3CCC(C)CC3)C2=S)CN1 (stereo partly drawn) [Compound A16]: -2.00
9. CC(C)C[C@@H]1CN(CCCC[C@H]2CNC(CCCc3ccccc3)=N2)C(=S)N1CC1CCC(C)CC1 (stereo partly drawn) [Compound A18]: -1.60

----------
- Test system: hippocampal neurons
- testMethodNotes: Neurite outgrowth assay in cultured E18 rat hippocampal neurons (48 h, βIII-tubulin staining, Cellomics ArrayScan)
- Assay type: cell-based
- experimentalContext: Hippocampal neuron, 48 h, 300% effective dose, estimated using linear interpolation, read-out: ED300%
measuredEndpoint: EC300

1) CC(C)C[C@@H]1CN(CCCC[C@H]2CNC(C3CCCC3)=N2)C(=S)N1CCC1CCCCC1: > 0.543 µM
2) CC(C)C[C@@H]1CN(CCCC[C@H]2CNC(CCCc3ccccc3)=N2)C(=S)N1CC1CCC(C)CC1 (stereo partly drawn): 0.461 µM
3) CCC(C)C1=N[C@@H](CCCCN2C[C@@H](CC(C)C)N(CC3CCC(C)CC3)C2=S)CN1 (stereo partly drawn): 0.053 µM
4) CC1CCC(CN2C(=S)N(CCCC[C@H]3CNC(C4CCCC4)=N3)C[C@H]2C)CC1 (stereo partly drawn): 0.282 µM
5) CC1CCC(CN2C(=S)N(CCCC[C@H]3CNC(C4CCCC4)=N3)C[C@H]2c2ccccc2)CC1 (stereo partly drawn): > 0.52 µM
6) CCC(C)C1=N[C@@H](CCCCN2C[C@@H](c3ccccc3)N(CC3CCC(C)CC3)C2=S)CN1 (stereo partly drawn): 0.054 µM
7) CC1CCC(CN2C(=S)N(CCCC[C@H]3CNC(CCCc4ccccc4)=N3)C[C@H]2c2ccccc2)CC1 (stereo partly drawn): > 0.471 µM
8) S=C1N(CCCC[C@H]2CNC(C3CCCC3)=N2)C[C@@H](c2ccccc2)N1CCC1CCCCC1: 0.091 µM
9) CC(C)C[C@@H]1CN(CCCC[C@H]2CNC(C3CCCC3)=N2)C(=S)N1CC1CCC(C)CC1 (stereo partly drawn): 0.025 µM
